system: SK-MEL-28; assay: NCI tumour cell line growth inhibition, 48 h
Active and inactive are the calls of the source. Cut-off read from the data, not from the text of the source: active = GI50 up to about 1.1 µM and inactive = higher.
In this section we review reported GI50 values for a set of compounds.

{"compound": "O=C1N=C2SC=C(NC(=S)Nc3ccccc3)N2NC12c1ccccc1-c1ccccc12", "GI50": "> 10 µM (inactive)"}
{"compound": "CCOC(=O)Cc1nnc2c(-c3ccccc3)nc3ccccc3n12", "GI50": "> 100 µM (inactive)"}
{"compound": "COc1ccc(C2CCC(Cl)(OC)CC2C=O)cc1 (centres undefined)", "GI50": "21 µM (inactive)"}
{"compound": "CC1(C)C2CC(=O)C1(C)C(O)C2Br (centres undefined)", "GI50": "> 100 µM (inactive)"}

###

system: HL-60; assay: NCI tumour cell line growth inhibition, 48 h
Active and inactive are the calls of the source. No stated cut-off is given here; in the data, active = GI50 up to about 1.1 µM and inactive = higher.
Possible outcomes: active, inactive

{"molecule": "Clc1ccc(/C=N/Nc2nnc3c4ccccc4c4ncccc4c3n2)cc1", "discrete.label": "inactive"}
{"molecule": "Oc1cccc(-c2cc(O)c3cc4c(cc3n2)OCO4)c1", "discrete.label": "inactive"}
{"molecule": "CC(SC(=O)Nc1ccc(/N=N/c2ccccc2)cc1)C(=O)O (stereo not drawn)", "discrete.label": "inactive"}
{"molecule": "COC(=O)Cc1ccc2c(cnn2-c2ccccc2)c1OC", "discrete.label": "inactive"}
{"molecule": "Cc1n[nH]c(=O)n1/N=C/c1ccc([N+](=O)[O-])cc1", "discrete.label": "inactive"}
{"molecule": "CCOC(=O)CSc1nnc(C(Sc2nc(-c3ccccc3)c(-c3ccccc3)[nH]2)C(C)C)n1-c1ccccc1 (stereo not drawn)", "discrete.label": "inactive"}
{"molecule": "Cc1cc(NS(=O)(=O)c2ccc(NC(=O)c3cccc4c(Nc5ccc(S(=O)(=O)Nc6cc(C)on6)cc5)c5ccccc5nc34)cc2)no1", "discrete.label": "inactive"}
{"molecule": "COC1C2c3ccccc3C(C#N)(Cc3ccc4c(c32)OCO4)N1C(=O)c1ccccc1 (stereo not drawn)", "discrete.label": "inactive"}
{"molecule": "CCOC(=O)C(=O)/C(=C\\NC(=S)Nc1ccccc1Cl)C(=O)OCC", "discrete.label": "inactive"}
{"molecule": "CCCCOC(=O)CNC(=O)OCCCCC#CC#CCCCCOC(=O)NCC(=O)OCCCC", "discrete.label": "inactive"}
{"molecule": "O=C(Nc1ccc(Cl)c(Cl)c1)C(=O)C(C(=O)c1ccccc1-c1ccccc1)C1OC(=O)c2ccccc21 (stereo not drawn)", "discrete.label": "inactive"}
{"molecule": "CCOC(=O)CN1CCNCCN(CC(=O)OCC)CCNCC1", "discrete.label": "inactive"}
{"molecule": "Nc1ccccc1CCN1CCN(CCCc2ccccc2)CC1", "discrete.label": "inactive"}
{"molecule": "Clc1ccc(C(OCn2ccnc2)c2nc3ccccc3[nH]2)c(Cl)c1 (stereo not drawn)", "discrete.label": "inactive"}
{"molecule": "CCOc1ccccc1NC(=O)CCC(=O)OC", "discrete.label": "inactive"}
{"molecule": "Cn1c(=O)[nH]c2sc3c(c2c1=N)CCCC3", "discrete.label": "inactive"}
{"molecule": "COc1cc(C(SCc2ccccc2)SCc2ccccc2)ccc1O", "discrete.label": "inactive"}
{"molecule": "O=C1/C(=C/c2ccc(O)cc2)Oc2ccccc21", "discrete.label": "inactive"}
{"molecule": "NS(=O)(=O)c1ccc(Nc2c3ccccc3nc3c(C(=O)NCCO)cccc23)cc1", "discrete.label": "active"}
{"molecule": "N#CC12C(=O)NC(=O)C1(C#N)C1C=CC2CC1 (stereo not drawn)", "discrete.label": "inactive"}
{"molecule": "CCOC(=O)C#Cc1ccc([N+](=O)[O-])cc1", "discrete.label": "inactive"}
{"molecule": "CCN(CC)CCCC(C)Nc1c(Sc2cnc3cc(Cl)ccc3c2NC(C)CCCN(CC)CC)cnc2cc(Cl)ccc12 (stereo not drawn)", "discrete.label": "inactive"}
{"molecule": "COC(=O)CN1CCN(c2cccc3c2CCCC3)CC1", "discrete.label": "inactive"}
{"molecule": "N#COc1ccc(Oc2ccccc2)cc1", "discrete.label": "inactive"}
{"molecule": "COC1(OC)N=C(N)C2(C#N)C(c3ccccc3)NC3=C(CCC3)C12C#N (stereo not drawn)", "discrete.label": "inactive"}
{"molecule": "COC(=O)CC1C(COC(C)=O)OC(n2cc(C)c(=O)[nH]c2=O)C1OC(C)=O (stereo not drawn)", "discrete.label": "inactive"}
{"molecule": "c1ccc2c(c1)Sc1ccccc1N2CC1CN2CCC1CC2 (stereo not drawn) [MEQUITAZINE]", "discrete.label": "inactive"}
{"molecule": "O=[N+]([O-])c1ccc2c(c1)Sc1ccccc1N2CCCCCl", "discrete.label": "inactive"}
{"molecule": "CNC1NC(=O)c2ccccc2N1Cc1ccc(F)cc1 (stereo not drawn)", "discrete.label": "inactive"}
{"molecule": "COc1ccc(/C=C2\\CN(C)CC3C2=NC(=S)NC3c2ccc(OC)cc2)cc1 (stereo not drawn)", "discrete.label": "inactive"}
{"molecule": "CCC1C(=O)C(O)[C@H]2[C@@H]3C(O)CC4=CC(=O)CC[C@]4(C)[C@H]3CC[C@]12C (stereo partly drawn)", "discrete.label": "inactive"}
{"molecule": "CC1=C(C(=O)Nc2ccc(Cl)c(C(=O)OC(C)C)c2)SCCO1", "discrete.label": "inactive"}
{"molecule": "CCCCN(CCCC)c1ccc(/N=N/c2ccc(S(=O)(=O)O)cc2)cc1", "discrete.label": "inactive"}
{"molecule": "NC(=O)CCC(NC(=O)Cc1ccccc1)C(=O)O (stereo not drawn)", "discrete.label": "inactive"}
{"molecule": "O=C1/C(=C/c2ccccc2[N+](=O)[O-])N=C(c2ccccc2)N1c1nc2ccccc2s1", "discrete.label": "inactive"}
{"molecule": "COc1nc(NC2OC(COC(C)=O)C(OC(C)=O)C(OC(C)=O)C2OC(C)=O)c(/N=C(\\C)C(C)=O)c(=O)n1C (stereo not drawn)", "discrete.label": "inactive"}
{"molecule": "N#CCOc1cccc(C2(N3CC=CCC3)CCCCC2)c1", "discrete.label": "inactive"}
{"molecule": "O=C1Cc2ccccc2CCc2ccccc21", "discrete.label": "inactive"}
{"molecule": "O=c1[nH][nH]c(=O)n1/N=C/c1ccccc1", "discrete.label": "inactive"}
{"molecule": "N/C(=N\\N=C\\c1nc2ccccc2o1)c1cnccn1", "discrete.label": "inactive"}
{"molecule": "O=C(Nc1nccs1)c1cc(C2=CC=CC([N+](=O)[O-])C=C2)nc(S)n1 (stereo not drawn)", "discrete.label": "inactive"}
{"molecule": "N#CC(/N=N/c1ccccc1C(=O)O)C(N)=O (stereo not drawn)", "discrete.label": "inactive"}
{"molecule": "C#Cc1cc(Br)c(OC(=O)C(C)(C)C)c(-c2cc(C#C)cc(Br)c2OC(=O)C(C)(C)C)c1", "discrete.label": "inactive"}

###

test system: NCI/ADR-RES; experiment: NCI tumour cell line growth inhibition, 48 h
The source made the active and inactive calls. Rule as the data show it: active = GI50 up to about 1.1 µM and inactive = higher.

{"compound": "OC1CCCCCCCCCCC1[S+]1CCCC1.O[B-](F)(F)F (stereo not given)", "tested.system": "NCI/ADR-RES", "GI50": "> 100 µM (inactive)"}
{"compound": "COC(=O)Cc1ccc2c(cnn2-c2ccccc2)c1OC", "tested.system": "NCI/ADR-RES", "GI50": "> 10 µM (inactive)"}
{"compound": "CC1CN=C(Nc2cccc(F)c2)S1 (stereo not given)", "tested.system": "NCI/ADR-RES", "GI50": "> 100 µM (inactive)"}
{"compound": "FC(F)(Sc1ccccn1)c1nc2ccccc2o1", "tested.system": "NCI/ADR-RES", "GI50": "85.3 µM (inactive)"}
{"compound": "CCC1C(=O)C(O)[C@H]2[C@@H]3C(O)CC4=CC(=O)CC[C@]4(C)[C@H]3CC[C@]12C (stereo not given in full)", "tested.system": "NCI/ADR-RES", "GI50": "> 50 µM (inactive)"}
{"compound": "CC(=O)OC[C@@]1(C)[C@@H]2[C@@H]3[C@@]4(CO[C@]3(C)C(=O)[C@@]3(O)C[C@H](C)[C@H](OC(C)=O)[C@@H]3[C@H]4OC(C)=O)[C@H](OC(=O)c3ccccc3)C[C@@H]21", "tested.system": "NCI/ADR-RES", "GI50": "> 100 µM (inactive)"}
{"compound": "COc1cc2c(cc1OC)C(Cc1c3ccccc3cc3ccccc13)N(C)CC2 (stereo not given)", "tested.system": "NCI/ADR-RES", "GI50": "24.7 µM (inactive)"}
{"compound": "CCN(CC)CCN1C(=O)C(=O)N(c2cccc3ccccc23)C1=O", "tested.system": "NCI/ADR-RES", "GI50": "> 10 µM (inactive)"}
{"compound": "C=C1CCOC2(C(O)C(C)(O)CO)NC(=O)C1(O)NC2=O (stereo not given)", "tested.system": "NCI/ADR-RES", "GI50": "> 100 µM (inactive)"}
{"compound": "COC(=O)CN1CCN(c2cccc3c2CCCC3)CC1", "tested.system": "NCI/ADR-RES", "GI50": "24.5 µM (inactive)"}
